Experiment: blockers of an Epstein-Barr virus protein-peptide interaction – biochemical, fluorescence polarization, dose response (AID 1419)
Settings: cell-free protein-peptide binding, 2 h
Active and inactive are the calls of the source. No rule for the calls is given here.
In this exercise, the only acceptable responses are active, inactive

Cc1cc2nc3c(=O)n(C4CCCCC4)c(=O)[nH]c3nc2cc1N = active
CCCSCCCNC(=O)CC1Oc2ccccc2NC1=O (stereo not drawn) = inactive
CN1CCc2cc3c(c4c2[C@H]1[C@H](O)c1ccccc1-4)OCO3 = active
CCc1ccc(NC(=O)c2ccc3ncsc3c2)cc1 = inactive
CC(=O)Nc1ccc2nc3c(=O)n(C)c(=O)n(C)c3nc2c1 = active
Cc1ccc(-n2cccc2/C=C2\C(=N)N3N=C(c4ccco4)SC3=NC2=O)cc1 = inactive
CCOC(=O)N1CCC(Nc2nc3ccccc3nc2NS(=O)(=O)c2ccc(Cl)cc2)CC1 = inactive

Now for another entry.
Check the results log: what was the call for `O=c1c(/C=C(\O)c2ccccc2)nc2ccccc2n1-c1ccccc1` ?
active
